# test-method-notes: Equilibrium solubility, shake flask method (European Pharmacopeia)
# Assay type: physicochemical
# condition-summary: aqueous buffer, 37 °C, pH 4.5, aqueous buffer, thermodynamic from solid, aqueous buffer pH 4.5, 37°C, shaking at 400 rpm for 24 hours

compound	solubility thermodynamic at 24 h (µg/mL)
COc1ccc(-n2nc(C(N)=O)c3c2C(=O)N(c2ccc(N4CCCCC4=O)cc2)CC3)cc1 [Form N-1, reference compound]	53

====

# test-method-notes: Equilibrium solubility, shake flask method (European Pharmacopeia)
# Format: physicochemical
# condition-summary: aqueous buffer, 37 °C, pH 1.2, simulated gastric fluid, thermodynamic from solid, aqueous buffer pH 1.2, 37°C, shaking at 400 rpm for 24 hours

compound	solubility thermodynamic at 24 h [µg/mL]
COc1ccc(-n2nc(C(N)=O)c3c2C(=O)N(c2ccc(N4CCCCC4=O)cc2)CC3)cc1 [Form N-1, reference compound]	44
